Attribution: paper PMC6151599

# Assay info: Bidirectional transport (Papp) across Caco-2 cell monolayer
# Format: in vitro ADME
# Condition notes: human, ratio of previously reported Papp values (refs 35, 36), read-out: Efflux Ratio (Papp BL→AP to Papp AP→BL)
Measured attribute: efflux ratio

{"Entry smiles": "O=C1C[C@@H](c2ccc(O[C@@H]3O[C@H](CO)[C@@H](O)[C@H](O)[C@H]3O)cc2)Oc2cc(O)ccc21", "Measured attribute": "efflux ratio", "Value reported": 0.98}
{"Entry smiles": "O=C(/C=C/c1ccc(O[C@@H]2O[C@H](CO)[C@@H](O)[C@H](O)[C@H]2O)cc1)c1ccc(O)cc1O", "Measured attribute": "efflux ratio", "Value reported": 0.89}

----------
# Assay info: Intracellular accumulation and total recovery (mass balance) at the end of transport
# Assay type: in vitro ADME, human
# Condition notes: human, Caco-2, end of transport, n = 3; read-out: Total recovery AP→BL
Measured attribute: recovery (%)

{"Entry smiles": "COc1c(/C=C/C(=O)c2ccc(O)cc2)ccc(O)c1O", "Value reported": 96.2}
{"Entry smiles": "CC1(C)[C@@H](O[C@@H]2O[C@H](C(=O)O)[C@@H](O)[C@H](O)[C@H]2O)CC[C@]2(C)[C@H]3C(=O)C=C4[C@@H]5C[C@@](C)(C(=O)O)CC[C@]5(C)CC[C@@]4(C)[C@]3(C)CC[C@@H]12", "Value reported": 97}
{"Entry smiles": "COc1cc(O)ccc1/C=C/C(=O)c1ccc(O)cc1", "Value reported": 96.9}

----------
# Assay info: Bidirectional transport (Papp) across Caco-2 cell monolayer
# Type: in vitro ADME, human
# Condition notes: human, Caco-2; read-out: Papp of transport markers
Measured attribute: Papp (×10⁻⁶ cm/s)

{"Compound": "CC(C)NCC(O)COc1cccc2ccccc12 (stereo not shown) [propranolol, reference compound]", "Measured attribute": "Papp", "Value reported": 25.1}

----------
# Assay info: Intracellular accumulation and total recovery (mass balance) at the end of transport
# Assay type: in vitro ADME, human
# Condition notes: human, Caco-2, end of transport, n = 3; read-out: Total recovery BL→AP
recovery by entry:
Measured attribute: recovery (%)

{"Entry smiles": "C=CC(C)(C)c1cc(/C=C/C(=O)c2ccc(O)cc2)c(OC)cc1O", "Measured attribute": "recovery", "Units label": "%", "Value reported": 90.4}
{"Entry smiles": "COc1c(/C=C/C(=O)c2ccc(O)cc2)ccc(O)c1O", "Measured attribute": "recovery", "Units label": "%", "Value reported": 94.5}
{"Entry smiles": "CC1(C)[C@@H](O[C@@H]2O[C@H](C(=O)O)[C@@H](O)[C@H](O)[C@H]2O)CC[C@]2(C)[C@H]3C(=O)C=C4[C@@H]5C[C@@](C)(C(=O)O)CC[C@]5(C)CC[C@@]4(C)[C@]3(C)CC[C@@H]12", "Measured attribute": "recovery", "Units label": "%", "Value reported": 91.6}
{"Entry smiles": "O=C1C[C@@H](c2ccc(O)cc2)Oc2cc(O)ccc21", "Measured attribute": "recovery", "Units label": "%", "Value reported": 94.8}
{"Entry smiles": "CC1(C)[C@@H](O)CC[C@]2(C)[C@H]3C(=O)C=C4[C@@H]5C[C@@](C)(C(=O)O)CC[C@]5(C)CC[C@@]4(C)[C@]3(C)CC[C@@H]12", "Measured attribute": "recovery", "Units label": "%", "Value reported": 98.2}
{"Entry smiles": "COc1c(/C=C/C(=O)c2ccc(O)cc2)ccc(O)c1CC=C(C)C", "Measured attribute": "recovery", "Units label": "%", "Value reported": 96.1}
{"Entry smiles": "COc1cc(O)ccc1/C=C/C(=O)c1ccc(O)cc1", "Measured attribute": "recovery", "Units label": "%", "Value reported": 97.7}
